Tested on: CEM cells HIV-1 protection, formazan growth assay
Assay Overview: NCI AIDS Antiviral Assay
Condition: measured here: growth of uninfected CEM cells
pIC50: −log10 of the molar value.
Measurement Kind: pIC50

| Smiles Input | Target Under Test | Result |
| --- | --- | --- |
| O=c1c(SCc2ccc(F)cc2)c(SCc2ccc(F)cc2)cnn1-c1ccccc1 | CEM cells HIV-1 protection, formazan growth assay | < 4.80 |
| O=c1[nH]c(-c2ccc(-c3nc4cc([N+](=O)[O-])ccc4c(=O)[nH]3)cc2)nc2cc([N+](=O)[O-])ccc12 | CEM cells HIV-1 protection, formazan growth assay | < 5.10 |
| O=c1cc(CC(O)(C(F)(F)Cl)C(F)(F)Cl)[nH]n1-c1ccccc1 | CEM cells HIV-1 protection, formazan growth assay | 3.93 |

###

System: CEM cells HIV-1 protection, formazan growth assay
Assay Overview: NCI AIDS Antiviral Assay
Condition: measured here: growth of uninfected CEM cells
Where a SMILES comes first, the peptide text is derived from it. The star is where a group is joined. Cbz = O=C(OCc1ccccc1)*
The molecules listed here are annotated with their IC50.
Measurement Kind: IC50

| Molecule | Target Under Test | Result |
| --- | --- | --- |
| CCC(C)C(NC(=O)C1CCCN1C(=O)OCc1ccccc1)C(=O)O (stereo not drawn) (Cbz-Pro-Ile-OH; configuration not given here) | CEM cells HIV-1 protection, formazan growth assay | > 692 µM |
| CCCCCCCCCCCCCCCc1ccc(OCC(O)CO)cc1 (stereo not given) | CEM cells HIV-1 protection, formazan growth assay | > 19.1 µM |
| CCC(=O)NCC1CCCN2CCCCC12 (stereo not given) | CEM cells HIV-1 protection, formazan growth assay | > 200 µM |
| CCCCCCCCCCCc1c2[nH]c3cc(C)ccc3oc2cc2[nH]c3cc(C)ccc3oc12 | CEM cells HIV-1 protection, formazan growth assay | > 2 µM |
| COc1cc2c(c(OC)c1OC)C(c1ccc3c(c1)OCO3)C1COC(=O)C1C2 (stereo not given) | CEM cells HIV-1 protection, formazan growth assay | > 91.2 µM |
| CCCCNC(=S)Nn1c(-c2ccccc2)nc2ccccc2c1=O | CEM cells HIV-1 protection, formazan growth assay | > 20.4 µM |
| CCOP(=O)(OCC)c1ccc[nH]1 | CEM cells HIV-1 protection, formazan growth assay | > 200 µM |
| CC12O[C@H](c3ccccc3)[C@H](c3ccccc3)N1C(=O)C1(C(=O)OCc3ccccc3)CC12 (stereo not given in full) | CEM cells HIV-1 protection, formazan growth assay | > 22.9 µM |
| CN1C(=O)C(C)(C)C(=O)c2ccccc21 | CEM cells HIV-1 protection, formazan growth assay | > 200 µM |
| Cc1nc(N/N=C/c2ccccc2Cl)[nH]c(=O)c1CCO | CEM cells HIV-1 protection, formazan growth assay | > 100 µM |
| CN1c2ccccc2C(=O)NC12CCNCC2 | CEM cells HIV-1 protection, formazan growth assay | > 200 µM |
| Cc1ccc(C)c(C(=O)c2ccccc2)c1C(=O)O | CEM cells HIV-1 protection, formazan growth assay | > 200 µM |
| CN(C)CC1(C)Cc2cc(Cl)sc2C1=O (stereo not given) | CEM cells HIV-1 protection, formazan growth assay | > 200 µM |
| C=C(Nc1nc2ccc(C)cc2s1)C(=O)C(CC)C(=O)C(CC)CC1C(=O)NC(=O)NC1=O (stereo not given) | CEM cells HIV-1 protection, formazan growth assay | > 39.8 µM |
| Cc1cc2c(C)nn(Cc3ccccc3)c2c(C(=O)O)c1C | CEM cells HIV-1 protection, formazan growth assay | > 123 µM |
| CC(C)(C#N)C(C)(C)SSC(C)(C)C(C)(C)C#N | CEM cells HIV-1 protection, formazan growth assay | > 178 µM |
| CCCCCCCCCCCCCCCC(=O)OCC1CCCN2CCCCC12 (stereo not given) | CEM cells HIV-1 protection, formazan growth assay | > 200 µM |
| CN(C)C=NCC(O)c1ccccc1 (stereo not given) | CEM cells HIV-1 protection, formazan growth assay | > 200 µM |
| CC(CCC#CC(=O)O)OC1CCCCO1 (stereo not given) | CEM cells HIV-1 protection, formazan growth assay | > 200 µM |
| COc1cc(C2C(Cl)C(=O)N2NC(=O)Cc2ccccc2)ccc1O (stereo not given) | CEM cells HIV-1 protection, formazan growth assay | > 72.4 µM |
